# methodDescription: UV absorption spectroscopic data (λmax, ε, E 1%/1 cm) of the merocyanine UV absorbers
# Format: physicochemical
# protocolConditions: Table MC3
Listed here: items and their measured E (1%, 1 cm).

>  <compound>
CCCCC(CC)COC(=O)/C(C#N)=C\C=C\N(CC)CCCCN(/C=C/C=C(/C#N)C(=O)OCC(CC)CCCC)CC (stereo not drawn)

>  <E (1%, 1 cm)>
2570

$$$$
>  <compound>
CCCCC(CC)COC(=O)C(C#N)=CC=CN(CC)CC (stereo not drawn)

>  <E (1%, 1 cm)>
2037

$$$$
>  <compound>
COC(=O)C(=C/C=C/N(C(C)C)C(C)C)C(=O)OC

>  <E (1%, 1 cm)>
2111

$$$$
>  <compound>
COC(=O)C(=C/C=C/N1CCCCC1)C(=O)OC

>  <E (1%, 1 cm)>
1953

$$$$
>  <compound>
CN(C)/C=C/C=C1C(=O)OC(C)(C)OC1=O

>  <E (1%, 1 cm)>
3022

$$$$
>  <compound>
CCOC(=O)C(=C/C=C/N1CCOCC1)C(=O)OCC

>  <E (1%, 1 cm)>
1684

$$$$
>  <compound>
CCCCC(CC)COC(=O)/C(C#N)=C\C=C\N(CC)CCCN(/C=C/C=C(/C#N)C(=O)OCC(CC)CCCC)CC (stereo not drawn)

>  <E (1%, 1 cm)>
1545

$$$$
>  <compound>
CCCCC(CC)COC(=O)/C(C#N)=C/C=C/N1CCN(/C=C/C=C(\C#N)C(=O)OCC(CC)CCCC)CC1 (stereo not drawn)

>  <E (1%, 1 cm)>
2650

$$$$
>  <compound>
CCCCCCCCOC(=O)/C(=C\C=C\N(CC)CC)S(=O)(=O)c1ccccc1

>  <E (1%, 1 cm)>
1724

$$$$
>  <compound>
COC(=O)C(=C/C=C/N1CCOCC1)C(=O)OC

>  <E (1%, 1 cm)>
1476

$$$$
>  <compound>
CCCCN(/C=C/C=C(C(=O)OCC)C(=O)OCC)CCCC

>  <E (1%, 1 cm)>
1423

$$$$
>  <compound>
COC(=O)C(=C/C=C/N(C)C)C(=O)OC

>  <E (1%, 1 cm)>
2488

$$$$
